Below: a set of entries, each annotated with reported MIC.
Tested on: Streptococcus pyogenes 308A
Test: In vitro antibacterial activity (MIC), agar two-fold dilution
Format: cell-based
Run Parameters: Streptococcus pyogenes 308A; Mueller-Hinton agar, 10^7 CFU/ml, 37° C., 18 hours
Give the number; µg/mL is assumed, so skip it.

Sample records with MIC:
[
  {
    "Compound": "O=C(O)c1cn(C2CC2)c2c(Cl)c(N3CC4CCCNC4C3)c(F)cc2c1=O (stereo not shown)",
    "Target Entity": "Streptococcus pyogenes 308A",
    "Measured Number": 0.391
  },
  {
    "Compound": "COc1c(N2C[C@@H]3CCCN[C@@H]3C2)c(F)cc2c(=O)c(C(=O)C[N+](=O)[O-])cn(C3CC3)c12.Cl (racemic)",
    "Target Entity": "Streptococcus pyogenes 308A",
    "Measured Number": 1.563
  },
  {
    "Compound": "Cl.O=C(C[N+](=O)[O-])c1cn(C2CC2)c2c(Cl)c(N3CC4CCCNC4C3)c(F)cc2c1=O (racemic)",
    "Target Entity": "Streptococcus pyogenes 308A",
    "Measured Number": 0.781
  }
]

Query compound follows.
Q) Item COc1c(N2CC3CCCNC3C2)c(F)cc2c(=O)c(C(=O)C[N+](=O)[O-])cn(C3CC3)c12.Cl (racemic) has what recorded MIC?
A) 0.781

====

System: Staphylococcus aureus 503
Test: In vitro antibacterial activity (MIC), agar two-fold dilution
Assay type: cell-based
Run Parameters: Staphylococcus aureus 503; Mueller-Hinton agar, 10^7 CFU/ml, 37° C., 18 hours
Below: a set of entries, each annotated with reported MIC.
Give the number; µg/mL is assumed, so skip it.

[
  {
    "Molecule": "COc1c(N2CC3CCCNC3C2)c(F)cc2c(=O)c(C(=O)C[N+](=O)[O-])cn(C3CC3)c12.Cl (racemic)",
    "MIC [µg/mL]": 0.025
  },
  {
    "Molecule": "O=C(O)c1cn(C2CC2)c2c(Cl)c(N3CC4CCCNC4C3)c(F)cc2c1=O (stereo not shown)",
    "MIC [µg/mL]": 0.025
  },
  {
    "Molecule": "Cl.O=C(C[N+](=O)[O-])c1cn(C2CC2)c2c(Cl)c(N3CC4CCCNC4C3)c(F)cc2c1=O (racemic)",
    "MIC [µg/mL]": 0.195
  }
]

Query molecule follows.
Q) State its MIC on Staphylococcus aureus 503: COc1c(N2C[C@@H]3CCCN[C@@H]3C2)c(F)cc2c(=O)c(C(=O)C[N+](=O)[O-])cn(C3CC3)c12.Cl (racemic)
A) 0.391
